Overview of reported phenotypically active across a group of molecules:
system: WPMY1-ACTB-RAB5A; assay: phenotypically active (imaging signature differs from DMSO and reproducible) at any of 0.3-9 uM (binary (1 = active, 0 = inactive)); higher = active; conditions: treatment time: 24 h
Structures can show the parent of a compound that is named as a salt.
// no unit string in output, number only

Reported phenotypically active for CC[C@@H](N)CNc1ccnc(-c2cc(-c3cnn(C)c3)ccc2O)n1 : what is it? 1

And the next one, O=c1cc(-c2ccc(O)cc2)oc2cc(O)cc(O)c12 [Apigenin] ? 0

And the next one, COc1cc(NC(=O)c2cccc(-n3cc(NC(=O)Nc4cccc(C)c4)cn3)c2)cc(OC)c1OC ? 0

And the next one, Cc1ccc(N(CC2=NCCN2)c2cccc(O)c2)cc1 [phentolamine] ? 0

And the next one, COC(=O)[C@H]1[C@H]2C[C@H]3c4[nH]c5ccccc5c4CCN3C[C@@H]2CC[C@@H]1O [Corynanthine hydrochloride] ? 0

And the next one, COc1cc(OC2CCN(C)CC2)ccc1Nc1ncc2c(n1)n(C1CCCC1)c(=O)n2C ? 1

And the next one, COc1cc2nc(N3CCN(C(=O)C4COc5ccccc5O4)CC3)nc(N)c2cc1OC (centres undefined) [doxazosin] ? 1

And the next one, CCCCCCCCCCCCc1ccc(S(=O)(=O)Nc2nncs2)cc1 ? 0

And the next one, OCc1ccccc1O[C@@H]1O[C@H](CO)[C@@H](O)[C@H](O)[C@H]1O [Salicin] ? 0

And the next one, O=C1NC(=O)C(c2ccccc2)(c2ccccc2)N1 [phenytoin] ? 0

And the next one, CCCc1nc(C)c2c(C)nc3ccc(OC)nc3n12 ? 0

And the next one, CC(=O)OC(C)C[N+](C)(C)C (centres undefined) [methacholine] ? 0

And the next one, COc1ccc(C[C@H](N)C(=O)N[C@H]2[C@@H](O)[C@H](n3cnc4c(N(C)C)ncnc43)O[C@@H]2CO)cc1 [Puromycin dihydrochloride] ? 1

And the next one, Cc1ccc(C(=O)N(CCCN)[C@@H](c2nc3cc(Cl)ccc3c(=O)n2Cc2ccccc2)C(C)C)cc1 [Ispinesib] ? 1

Just for reference, the supplement of paper PMC7411054 is where these values come from.
